System: SRY-box transcription factor 2 (SOX2) Protein Expression, Deisenroth Lab, SOX2 (gene 6657)
Experiment: CCTE_Deisenroth_DEVTOX-GLR_Meso_SOX2: CCTE's DevTox GLR-Meso Assay Evaluation of SRY-box transcription factor 2 (SOX2) Protein Expression, Deisenroth Lab
Records with an inconclusive call do not appear. Active and inactive are the calls of the source. The calls were made as follows: active = hit-call score of the fitted dose curve at least 0.9, where 1 is the maximum; inconclusive = response in the unintended direction; inactive = score below 0.9.
Outcome (select one): active, inactive

Consider the following illustrative entries.
- COMPOUND: "CC(C)(c1ccc(O)cc1)c1ccc(O)cc1"
  TARGET_SYSTEM: "SRY-box transcription factor 2 (SOX2) Protein Expression, Deisenroth Lab, SOX2 (gene 6657)"
  CLASS_LABEL: "active"
- COMPOUND: "CC1=C(/C=C/C(C)=C/C=C/C(C)=C/C(=O)O)C(C)(C)CCC1"
  TARGET_SYSTEM: "SRY-box transcription factor 2 (SOX2) Protein Expression, Deisenroth Lab, SOX2 (gene 6657)"
  CLASS_LABEL: "active"
- COMPOUND: "O=C1CCC(N2C(=O)c3ccccc3C2=O)C(=O)N1 (stereo not given)"
  TARGET_SYSTEM: "SRY-box transcription factor 2 (SOX2) Protein Expression, Deisenroth Lab, SOX2 (gene 6657)"
  CLASS_LABEL: "inactive"
- COMPOUND: "CC(=O)Nc1ccc(O)cc1"
  TARGET_SYSTEM: "SRY-box transcription factor 2 (SOX2) Protein Expression, Deisenroth Lab, SOX2 (gene 6657)"
  CLASS_LABEL: "inactive"

Now consider a different compound.
In: So what was the verdict on `CC1(C)S[C@@H]2[C@H](NC(=O)Cc3ccccc3)C(=O)N2[C@H]1C(=O)O` in this test?
Out: inactive
